target: human CLDN6 fused to GFP, expressed on engineered HEK293T cells (human) (UniProt P56747); assay: FACS, 293T clone with human CLDN6, 0.3 ug Ab
Values of FACS signal greater than or equal to 50000 map to Condition met; values below map to Condition not met.

binder	assigned.class
AB1-4 (antibody, V domains shown) VH: QVQLVQSGAEVKKPGASVKVSCKASGYTFTTYTMHWVRQAPGQGLEWMGFINPSSGYTDYAQKFQGRVTMTADTSTSTVYMELSSLRSEDTAVYYCANGDYYVAYWGQGTLVTVSS VL: DIQLTQSPSSLSASVGDRVTMTCTASSSVSSTYFHWYQQKPGKAPKLLIYSTSNLASGVPSRFSGSGSGTDYTLTISSMQPEDAATYYCHQYHRSPLTFGQGTKLEIK	Condition met
AB4-6 (antibody, V domains shown) VH: QVQLVQSGAEVKKPGASVKMSCKASGYTFTSYTMHWIRQAPGQGLEWIGYINPSSTYTHYAQKFQGRATLTADKSTSTAYMELSSLRSEDTAVYYCSRGELGGFAYWGQGTLVTVSS VL: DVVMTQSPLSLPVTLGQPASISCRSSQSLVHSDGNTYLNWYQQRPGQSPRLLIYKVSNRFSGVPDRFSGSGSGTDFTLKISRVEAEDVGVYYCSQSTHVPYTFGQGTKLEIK	Condition not met
AB1-7 (antibody, V domains shown) VH: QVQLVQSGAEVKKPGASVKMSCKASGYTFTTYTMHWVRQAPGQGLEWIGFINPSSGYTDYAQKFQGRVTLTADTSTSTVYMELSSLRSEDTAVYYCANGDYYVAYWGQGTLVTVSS VL: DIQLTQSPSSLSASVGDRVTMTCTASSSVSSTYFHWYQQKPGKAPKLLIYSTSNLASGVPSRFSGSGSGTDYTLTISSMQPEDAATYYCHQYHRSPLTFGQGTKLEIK	Condition met
AB4-11 (antibody, V domains shown) VH: QVQLVQSGAEVKKPGASVKMSCKASGYTFTSYTMHWIRQAPGQGLEWIGYINPSSTYTHYIKKFKDRATLTADKSTSTAYMELSSLRSEDTAVYYCSRGELGGFAYWGQGTLVTVSS VL: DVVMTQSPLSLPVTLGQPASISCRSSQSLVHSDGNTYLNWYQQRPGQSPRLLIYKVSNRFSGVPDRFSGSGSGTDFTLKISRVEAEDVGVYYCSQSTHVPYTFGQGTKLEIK	Condition not met
AB1-Chim (antibody, V domains shown) VH: QVQLQQSAAELARPGASVKMSCKASGYTFTTYTMHWVKQRPGQGLEWIGFINPSSGYTDYNQKFKDRTTLTADKSSSTVYMQLSSLTSEDSAVYYCANGDYYVAYWGQGTLVTVSA VL: QIVLTQSPAIMSASLGERVTMTCTASSSVSSTYFHWYQQKPGSSPKLWIYSTSNLASGVPRRFSGSASGTSYSLTISSMEAEDAATYYCHQYHRSPLTFGAGTKLELK	Condition met
AB1-5 (antibody, V domains shown) VH: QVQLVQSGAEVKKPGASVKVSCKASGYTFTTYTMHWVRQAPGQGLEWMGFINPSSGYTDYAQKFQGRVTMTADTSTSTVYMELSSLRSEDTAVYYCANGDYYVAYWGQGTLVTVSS VL: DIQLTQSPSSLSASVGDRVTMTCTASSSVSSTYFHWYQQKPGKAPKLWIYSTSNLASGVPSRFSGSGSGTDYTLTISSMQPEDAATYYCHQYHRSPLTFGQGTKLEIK	Condition met
AB1-3 (antibody, V domains shown) VH: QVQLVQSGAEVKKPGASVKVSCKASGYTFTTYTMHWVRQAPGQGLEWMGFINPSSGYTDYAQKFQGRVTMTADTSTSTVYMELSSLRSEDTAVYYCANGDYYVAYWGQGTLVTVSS VL: DIQMTQSPSSLSASVGDRVTITCTASSSVSSTYFHWYQQKPGKAPKLLIYSTSNLASGVPSRFSGSGSGTDYTLTISSLQPEDFATYYCHQYHRSPLTFGQGTKLEIK	Condition met
AB1-11 (antibody, V domains shown) VH: QVQLVQSGAEVKKPGASVKMSCKASGYTFTTYTMHWVRQAPGQGLEWIGFINPSSGYTDYAQKFQGRVTLTADKSTSTVYMELSSLRSEDTAVYYCANGDYYVAYWGQGTLVTVSS VL: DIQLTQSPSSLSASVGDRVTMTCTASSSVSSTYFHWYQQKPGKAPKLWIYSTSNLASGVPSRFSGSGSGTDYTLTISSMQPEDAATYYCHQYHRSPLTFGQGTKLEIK	Condition met
AB4-4 (antibody, V domains shown) VH: QVQLVQSGAEVKKPGASVKMSCKASGYTFTSYTMHWIRQAPGQGLEWIGYINPSSTYTHYAQKFQGRATLTADTSTSTAYMELSSLRSEDTAVYYCSRGELGGFAYWGQGTLVTVSS VL: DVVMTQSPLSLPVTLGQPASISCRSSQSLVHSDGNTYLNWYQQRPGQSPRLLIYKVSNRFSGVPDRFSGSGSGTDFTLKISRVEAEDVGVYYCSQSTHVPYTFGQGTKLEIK	Condition not met
